assay: motesanib plasma pharmacokinetics in patients; format: in vivo, human; conditions: human, in vivo, mean estimated terminal elimination half-life (t 1/2,z)
Measurement name: half-life

Compound | Result
CC1(C)CNc2cc(NC(=O)c3cccnc3NCc3ccncc3)ccc21 [motesanib] | 5.21 to 6.72 h
